growth inhibition values by entry
measurementNotes: OD615 S. cerevisiae growth inhibition, permissive medium, pilot counter-assay, permissive growth control for S. cerevisiae lifespan shortening project (AID 705)
setupConditions: OD615, 24 h, at 10 µM, active compounds read high
assayMetric: growth inhibition (%)

- molecule: "COc1ccc(NC(=O)c2nc3nc(C)cc(C(F)F)n3n2)cc1OC"
  assayMetric: "growth inhibition"
  unitString: "%"
  result: -10.9
- molecule: "CC(Cc1ccccc1)N/C=C1/CC(=O)NC1=O (stereo unspecified)"
  assayMetric: "growth inhibition"
  unitString: "%"
  result: -8.61
- molecule: "CCOc1ccc(C2C(C(=O)Nc3ccc(F)cc3)=C(C)Nc3nc(CCCO)nn32)cc1 (stereo unspecified)"
  assayMetric: "growth inhibition"
  unitString: "%"
  result: -12.5
- molecule: "Cc1csc(NC(=O)CSc2nnc(Cc3cccn3C)n2CCc2ccccc2)n1"
  assayMetric: "growth inhibition"
  unitString: "%"
  result: 11
- molecule: "COc1ccccc1CCNC(=O)c1cnn2c(C(F)F)cc(C)nc12"
  assayMetric: "growth inhibition"
  unitString: "%"
  result: -0.75
- molecule: "CCc1noc2c1/C(=N\\O)CC(c1ccccc1)C2 (stereo unspecified)"
  assayMetric: "growth inhibition"
  unitString: "%"
  result: 0.555
- molecule: "CCOC(=O)c1ccc(NC(=O)C23CCC(C)(C(=O)O2)C3(C)C)cc1 (stereo unspecified)"
  assayMetric: "growth inhibition"
  unitString: "%"
  result: 1.15
- molecule: "Cc1cc(NS(=O)(=O)c2ccc(NC(=O)Nc3ccccc3)cc2)no1"
  assayMetric: "growth inhibition"
  unitString: "%"
  result: 4.26
- molecule: "C[C@@H](NC(=O)c1coc(=O)c(Br)c1)c1ccccc1"
  assayMetric: "growth inhibition"
  unitString: "%"
  result: -24.5
- molecule: "O=C1c2cccnc2C(=O)N1Cc1cccs1"
  assayMetric: "growth inhibition"
  unitString: "%"
  result: -1.61
- molecule: "CSc1nnc(NC(=O)C2CCCCC2)s1"
  assayMetric: "growth inhibition"
  unitString: "%"
  result: -7.81
- molecule: "O=C(N1CCN(c2ccc(F)cc2)CC1)C12CC3CC(CC(C3)C1)C2"
  assayMetric: "growth inhibition"
  unitString: "%"
  result: -15.7
- molecule: "O=C(CCS(=O)(=O)c1ccccc1)Nc1nc2c(s1)CCCC2"
  assayMetric: "growth inhibition"
  unitString: "%"
  result: -16.6
- molecule: "C=CCSc1nc2c(cnn2-c2ccc(C)c(C)c2)c(=O)[nH]1"
  assayMetric: "growth inhibition"
  unitString: "%"
  result: -6.23
- molecule: "COC(=O)c1cn(NC(=O)c2cnccn2)c(=O)c2ccccc12"
  assayMetric: "growth inhibition"
  unitString: "%"
  result: -5.4
- molecule: "Cc1ccc2oc(=O)c3cnn(CC(=O)N4CCc5ccccc5C4)c3c2c1"
  assayMetric: "growth inhibition"
  unitString: "%"
  result: -10.4
- molecule: "Cn1c(Cn2c(=O)sc3ccccc32)nnc1SCc1ccc(F)cc1"
  assayMetric: "growth inhibition"
  unitString: "%"
  result: -7.12
- molecule: "CCOc1ccc2nc3ccc4[nH]onc4c3c2c1"
  assayMetric: "growth inhibition"
  unitString: "%"
  result: 0.485
- molecule: "N#CCCN1CCN(C(CNS(=O)(=O)c2ccc(Cl)cc2)c2ccccc2)CC1 (stereo unspecified)"
  assayMetric: "growth inhibition"
  unitString: "%"
  result: -11.4
- molecule: "CN1CCN(Cc2c(O)ccc3occ(C(=O)c4ccccc4)c23)CC1"
  assayMetric: "growth inhibition"
  unitString: "%"
  result: -13
- molecule: "CC(C)CC(NC(=O)C1CCC(C)CC1)C(=O)Nc1cccnc1 (stereo unspecified)"
  assayMetric: "growth inhibition"
  unitString: "%"
  result: -8.21
- molecule: "CCOc1ccc(CC(=O)NCc2cn3c(C)csc3n2)cc1"
  assayMetric: "growth inhibition"
  unitString: "%"
  result: -5.88
- molecule: "C=CCSC1=N/C(=C\\c2ccc(C)o2)C(=O)S1"
  assayMetric: "growth inhibition"
  unitString: "%"
  result: -9.79
- molecule: "Clc1ccc(-c2nnn(Cc3nc4ccccc4s3)n2)cc1"
  assayMetric: "growth inhibition"
  unitString: "%"
  result: -2.44
- molecule: "CCC(C(=O)N1CC2(C)CC1CC(C)(C)C2)N1C(=O)c2ccccc2C1=O (stereo unspecified)"
  assayMetric: "growth inhibition"
  unitString: "%"
  result: -2.71
- molecule: "CCN(CC)C(=O)c1cc2c(=O)n3ccccc3nc2s1"
  assayMetric: "growth inhibition"
  unitString: "%"
  result: -4.75
- molecule: "CCCCCCn1c(SCC(=O)c2ccccc2)nc2c1c(=O)[nH]c(=O)n2C"
  assayMetric: "growth inhibition"
  unitString: "%"
  result: -4.82
- molecule: "CCSc1nc2ccccc2n1S(=O)(=O)c1ccccc1"
  assayMetric: "growth inhibition"
  unitString: "%"
  result: -13.9
- molecule: "COc1ccc2[nH]c(C)c(CCN3C(=O)C4CC=CCC4C3=O)c2c1 (stereo unspecified)"
  assayMetric: "growth inhibition"
  unitString: "%"
  result: -14.4
- molecule: "O=C1CC(c2ccccc2)CC(O)=C1C=NCCN1CCNCC1 (stereo unspecified)"
  assayMetric: "growth inhibition"
  unitString: "%"
  result: -21.5
- molecule: "CC(C)OC(=O)C1C2C=CC3(CN(C(C)c4ccc(Br)cc4)C(=O)C13)O2 (stereo unspecified)"
  assayMetric: "growth inhibition"
  unitString: "%"
  result: -19.3
- molecule: "CC(=O)N(CCCc1ccc(C(C)(C)C)cc1)CCCN(C)C"
  assayMetric: "growth inhibition"
  unitString: "%"
  result: -2.64
- molecule: "CCOC(=O)C1CCN(C(=O)c2oc3ccc(S(=O)(=O)N4CC(C)CC(C)C4)cc3c2C)CC1 (stereo unspecified)"
  assayMetric: "growth inhibition"
  unitString: "%"
  result: 1.57
- molecule: "O=C(CSc1nnc(-c2ccccn2)n1Cc1ccco1)c1ccccc1"
  assayMetric: "growth inhibition"
  unitString: "%"
  result: 0.135
- molecule: "COc1cccc(CNC(=O)C2CCN(S(=O)(=O)c3cccc4cccnc34)CC2)c1"
  assayMetric: "growth inhibition"
  unitString: "%"
  result: -10.5
- molecule: "CC(C)N(C(=O)COc1ccc(Br)cc1Cl)C(C)C"
  assayMetric: "growth inhibition"
  unitString: "%"
  result: -6.94
- molecule: "O=C(c1cncc(Br)c1)N1CCN(c2ccc(N3CCOCC3)nn2)CC1"
  assayMetric: "growth inhibition"
  unitString: "%"
  result: -0.43
- molecule: "O=C(Nc1nnc(-c2cccs2)o1)c1cccc(Oc2ccccc2)c1"
  assayMetric: "growth inhibition"
  unitString: "%"
  result: 16.2
- molecule: "C=CCOC(=O)C1CC=CCC1C(=O)Oc1ccc(F)cc1F (stereo unspecified)"
  assayMetric: "growth inhibition"
  unitString: "%"
  result: -18.3
- molecule: "COc1cccc(-c2nc(CS(=O)(=O)CC(=O)NCc3ccccc3)c(C)o2)c1"
  assayMetric: "growth inhibition"
  unitString: "%"
  result: 6.62
- molecule: "Cc1ccc(-c2nn3c(C)nnc3s2)cc1NC(=O)c1ccco1"
  assayMetric: "growth inhibition"
  unitString: "%"
  result: 3.94
